- Assay Details: probe aLAP1 signal on lysate-treated microarray – cell lysate, small-molecule microarray, COS7 lysate, primary screen (AID 1124);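 note: lysate comes from COS7 cells expressing LAP1 and is applied at 0.3 µg/mL; score merges spot fluorescence near 667 nm with signal-to-noise over triplicate slides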
- Condition Parameters: probe aLAP1, fluorescence, higher = more signal
Observation Type: composite z-score

Before answering, review these 7 worked examples.
| Compound | composite z-score |
| --- | --- |
| CC[C@@H]1C=C(C(=O)O)[C@H](c2ccc(C)cc2)N1S(=O)(=O)c1ccc(C)cc1 | 0.0014 |
| O=C1OCC=C[C@H]2OC34C=CCN(Cn5nnc6ccccc65)C(=O)[C@H]3N(CCCCCO)C(=O)[C@@H]4[C@@H]12 (stereo partly drawn) | 0.435 |
| CC(C)OC(=O)C=C1C[C@@H](c2cccc(Cl)c2)O[C@@H](c2cccc(Cl)c2)O1 | 0.484 |
| COC(=O)C(CC#Cc1ccc2c(c1)[C@]1(C(=O)N2)[C@H](c2ccccc2OCCO)N2[C@H](c3ccccc3)[C@H](c3ccccc3)OC(=O)[C@H]2[C@@H]1C(=O)O)C(=O)OC | 0.375 |
| O=C1O[C@@H](c2ccccc2)[C@@H](c2ccccc2)N2[C@@H](c3ccccc3OCCO)[C@]3(C(=O)Nc4ccc(C#CC5(O)CCCCCC5)cc43)[C@@H](C(=O)N3CCN(c4ncccn4)CC3)[C@H]12 | 0.795 |
| O=C(CS)NCCCCCNC(=O)[C@H]1C[C@H]2C(=O)NCC(=O)N2[C@H]1c1ccc(O)cc1 | -0.474 |
| C=CC[C@]1(C(=O)N2CCOCC2)N=C(c2ccc(OCCCO)cc2)O[C@H]1c1ccccc1N=[N+]=[N-] | 0.647 |

Kindly review the next compound as well.
# input Read the entry COC(=O)[C@]1(Cc2ccccc2)N=C(c2ccc(OCCCO)cc2)O[C@@H]1c1ccccc1N=[N+]=[N-] and write its reported composite z-score.
# output 0.209

Attribution: PubChem BioAssay
